Potency (%) by entry:
- Test system: tail-withdrawal latency
- assay.comment: Tail-flick latency test
- Type: in vivo, rats
- cond: analgesic potency after 120 minutes compared with the reference drug naproxen
attribute.measured: Potency (%)

>>> print(df.to_string())
                                   compound  attribute_measured  recorded_value
0  COC(=O)C(CO)NC(=S)NC(=O)C(C)c1ccc2cc(OC)ccc2c1 (centres unmarked)         Potency (%)            68.6
1  COc1ccc2cc(C(C)C(=O)NC(=S)NC(CO)C(=O)O)ccc2c1 (centres unmarked)         Potency (%)            58.6
2  COc1ccc2cc(C(C)C(=O)NC(=S)NCCC(=O)O)ccc2c1 (centres unmarked)         Potency (%)            60.0
3  COc1ccc2cc(C(C)C(=O)NC(=S)NC(CO)C(=O)NN)ccc2c1 (centres unmarked)         Potency (%)            64.3
4  COC(=O)CCNC(=S)NC(=O)C(C)c1ccc2cc(OC)ccc2c1 (centres unmarked)         Potency (%)            81.4

* * *

- Test system: carrageenan-induced paw edema
- assay.comment: Carrageenan-induced rat-paw-edema assay
- Assay type: in vivo, rats
- cond: 2 hours; calculated compared to the reference drug naproxen
Please mark label 1 if the recorded Potency (%) is equal to or greater than 60%, and label 0 if it falls below.

>>> df
                                   molecule  answer_label
0  COC(=O)C(CO)NC(=S)NC(=O)C(C)c1ccc2cc(OC)ccc2c1 (stereo not shown) [Compound 11]       label 1
1  COc1ccc2cc(C(C)C(=O)NC(=S)NCCC(=O)NN)ccc2c1 (stereo not shown) [Compound 14]       label 0
2  COc1ccc2cc(C(C)C(=O)NC(=S)NC(C)C(=O)O)ccc2c1 (stereo not shown) [Compound 5]       label 1
3  COc1ccc2cc(C(C)C(=O)NC(=S)NC(Cc3ccc(O)cc3)C(=O)O)ccc2c1 (stereo not shown) [Compound 8]       label 1
4  COC(=O)CCNC(=S)NC(=O)C(C)c1ccc2cc(OC)ccc2c1 (stereo not shown) [Compound 10]       label 0
5  COc1ccc2cc(C(C)C(=O)NC(=S)NC(CO)C(=O)NN)ccc2c1 (stereo not shown) [Compound 15]       label 1
6  COC(=O)C(C)NC(=S)NC(=O)C(C)c1ccc2cc(OC)ccc2c1 (stereo not shown) [Compound 9]       label 0
7  COc1ccc2cc(C(C)C(=O)NC(=S)NC(CO)C(=O)O)ccc2c1 (stereo not shown) [Compound 7]       label 1
8  COc1ccc2cc([C@H](C)C(=O)O)ccc2c1 [Naproxen, reference compound]       label 1

* * *

Latency (seconds) by entry:
- Tested on: tail-withdrawal latency
- assay.comment: Tail-flick latency test
- Format: in vivo, rats
- cond: 60 minutes; compounds 5 mg/kg orally, naproxen 2.5 mg/kg orally, in DMSO; mean ± SE of six rats
Marks after values point to notes of the source that are not given here.
attribute.measured: Latency (seconds)

In [3]: df
Out[3]:
                                   compound              system_name       recorded_value
0  COC(=O)C(C)NC(=S)NC(=O)C(C)c1ccc2cc(OC)ccc2c1 (stereo not shown) [Compound 9]  tail-withdrawal latency    3.8±0.3^b seconds
1  COC(=O)CCNC(=S)NC(=O)C(C)c1ccc2cc(OC)ccc2c1 (stereo not shown) [Compound 10]  tail-withdrawal latency    4.6±0.4^b seconds
2  COc1ccc2cc(C(C)C(=O)NC(=S)NC(CO)C(=O)O)ccc2c1 (stereo not shown) [Compound 7]  tail-withdrawal latency    3.6±0.3^b seconds
3  COc1ccc2cc(C(C)C(=O)NC(=S)NC(C)C(=O)O)ccc2c1 (stereo not shown) [Compound 5]  tail-withdrawal latency    3.9±0.4^b seconds
4  COc1ccc2cc([C@H](C)C(=O)O)ccc2c1 [Naproxen, reference compound]  tail-withdrawal latency    6.2±0.4^a seconds
5  COc1ccc2cc(C(C)C(=O)NC(=S)NCCC(=O)NN)ccc2c1 (stereo not shown) [Compound 14]  tail-withdrawal latency    5.6±0.2^a seconds
6  COc1ccc2cc(C(C)C(=O)NC(=S)NC(Cc3ccc(O)cc3)C(=O)O)ccc2c1 (stereo not shown) [Compound 8]  tail-withdrawal latency  4.9±0.3^a,b seconds
7  COc1ccc2cc(C(C)C(=O)NC(=S)NCCC(=O)O)ccc2c1 (stereo not shown) [Compound 6]  tail-withdrawal latency    4.0±0.2^b seconds
8  COC(=O)C(CO)NC(=S)NC(=O)C(C)c1ccc2cc(OC)ccc2c1 (stereo not shown) [Compound 11]  tail-withdrawal latency    4.8±0.4^b seconds
9  COc1ccc2cc(C(C)C(=O)NC(=S)NC(CO)C(=O)NN)ccc2c1 (stereo not shown) [Compound 15]  tail-withdrawal latency    3.9±0.2^b seconds

* * *

- Test system: carrageenan-induced paw edema
- assay.comment: Carrageenan-induced rat-paw-edema assay
- Assay type: in vivo, rats
- cond: 4 hours; calculated compared to the reference drug naproxen
Please mark Met if the recorded Potency (%) is equal to or greater than 80%, and Not met if it falls below.

>>> print(df.to_string())
                                   compound  answer_label
0  COC(=O)CCNC(=S)NC(=O)C(C)c1ccc2cc(OC)ccc2c1 (stereo not shown) [Compound 10]       Not met
1  COc1ccc2cc(C(C)C(=O)NC(=S)NCCC(=O)NN)ccc2c1 (stereo not shown) [Compound 14]       Not met
2  COc1ccc2cc(C(C)C(=O)NC(=S)NCCC(=O)O)ccc2c1 (stereo not shown) [Compound 6]       Not met
3  COC(=O)C(C)NC(=S)NC(=O)C(C)c1ccc2cc(OC)ccc2c1 (stereo not shown) [Compound 9]       Not met
4  COc1ccc2cc(C(C)C(=O)NC(=S)NC(Cc3ccc(O)cc3)C(=O)O)ccc2c1 (stereo not shown) [Compound 8]           Met
5  COc1ccc2cc(C(C)C(=O)NC(=S)NC(C)C(=O)O)ccc2c1 (stereo not shown) [Compound 5]       Not met
6  COc1ccc2cc(C(C)C(=O)NC(=S)NC(CO)C(=O)O)ccc2c1 (stereo not shown) [Compound 7]           Met
7  COC(=O)C(CO)NC(=S)NC(=O)C(C)c1ccc2cc(OC)ccc2c1 (stereo not shown) [Compound 11]       Not met
8  COc1ccc2cc([C@H](C)C(=O)O)ccc2c1 [Naproxen, reference compound]           Met

* * *

- Test system: tail-withdrawal latency
- assay.comment: Tail-flick latency test
- Type: in vivo, rats
- cond: 30 minutes; compounds 5 mg/kg orally, naproxen 2.5 mg/kg orally, in DMSO; mean ± SE of six rats
Marks after values point to notes of the source that are not given here.
Latency (seconds) by entry:
attribute.measured: Latency (seconds)

In [3]: df
Out[3]:
                                   compound              system_name  attribute_measured     recorded_value
0  COc1ccc2cc(C(C)C(=O)NC(=S)NC(C)C(=O)O)ccc2c1 (centres unmarked)  tail-withdrawal latency   Latency (seconds)  3.9±0.3^b seconds
1  COC(=O)C(CO)NC(=S)NC(=O)C(C)c1ccc2cc(OC)ccc2c1 (centres unmarked)  tail-withdrawal latency   Latency (seconds)  4.8±0.5^a seconds
2  COc1ccc2cc(C(C)C(=O)NC(=S)NCCC(=O)NN)ccc2c1 (centres unmarked)  tail-withdrawal latency   Latency (seconds)  6.1±0.4^a seconds
3  COC(=O)CCNC(=S)NC(=O)C(C)c1ccc2cc(OC)ccc2c1 (centres unmarked)  tail-withdrawal latency   Latency (seconds)  3.1±0.3^b seconds
4  COc1ccc2cc([C@H](C)C(=O)O)ccc2c1 [Naproxen, reference compound]  tail-withdrawal latency   Latency (seconds)  5.3±0.3^a seconds
5  COc1ccc2cc(C(C)C(=O)NC(=S)NC(Cc3ccc(O)cc3)C(=O)O)ccc2c1 (centres unmarked)  tail-withdrawal latency   Latency (seconds)  5.0±0.2^a seconds
6  COc1ccc2cc(C(C)C(=O)NC(=S)NC(CO)C(=O)O)ccc2c1 (centres unmarked)  tail-withdrawal latency   Latency (seconds)  3.9±0.4^b seconds
7  COC(=O)C(C)NC(=S)NC(=O)C(C)c1ccc2cc(OC)ccc2c1 (centres unmarked)  tail-withdrawal latency   Latency (seconds)  3.7±0.2^b seconds

* * *

- Tested on: tail-withdrawal latency
- assay.comment: Tail-flick latency test
- Type: in vivo, rats
- cond: analgesic potency after 120 minutes compared with the reference drug naproxen
Define the label as Yes when Potency (%) is strictly less than 80% and as No in all remaining cases.

In [3]: df
Out[3]:
                                   compound  answer_label
0  COC(=O)C(C)NC(=S)NC(=O)C(C)c1ccc2cc(OC)ccc2c1 (centres unmarked)           Yes
1  COc1ccc2cc([C@H](C)C(=O)O)ccc2c1 [Naproxen, reference compound]            No
2  COc1ccc2cc(C(C)C(=O)NC(=S)NC(C)C(=O)O)ccc2c1 (centres unmarked)           Yes
3  COc1ccc2cc(C(C)C(=O)NC(=S)NC(Cc3ccc(O)cc3)C(=O)O)ccc2c1 (centres unmarked)            No
